# target-of-assay: Aβ1-40 (Homo sapiens)
# Construct: (β-AP1-40) was obtained commercially from Bachem (Torrance, Calif.); purchased Bachem (Torrance, Calif.)
# Sequence (P05067 672-711): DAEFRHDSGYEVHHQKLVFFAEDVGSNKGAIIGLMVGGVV
# test: Nucleation assay (turbidity, A405 nm);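 also: synthetic Aβ monomer polymerization followed by turbidity in 96-well plates with continuous shaking, read every 15 minutes over 5 hours, compared against wells lacking test compound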
# Type: biochemical
# test-context: Table II; 100 mole % vs 50 μM Aβ1-40
Peptide text beside a SMILES is read from it. * marks the point of attachment. Cholyl = C[C@H](CCC(=O)*)[C@H]1CC[C@H]2[C@@H]3[C@H](O)C[C@@H]4C[C@H](O)CC[C@]4(C)[C@H]3C[C@H](O)[C@]12C
property-measured: Fold Increase in Lag Time (fold)
Give just the numeric value; fold need not be written.

*Q* So what does the record say about Fold Increase in Lag Time for CC[C@H](C)[C@H](NC(=O)[C@H](C)NC(=O)CNC(=O)[C@H](CCCCN)NC(=O)[C@H](CC(N)=O)NC(=O)[C@H](CO)NC(=O)CNC(=O)[C@@H](NC(=O)[C@H](CC(=O)O)NC(=O)[C@H](CCC(=O)O)NC(=O)[C@H](C)NC(=O)CC[C@@H](C)[C@H]1CC[C@H]2[C@@H]3[C@H](O)C[C@@H]4C[C@H](O)CC[C@]4(C)[C@H]3C[C@H](O)[C@]12C)C(C)C)C(=O)N[C@H](C(=O)NCC(=O)N[C@@H](CC(C)C)C(=O)N[C@@H](CCSC)C(=O)O)[C@@H](C)CC [PPI-279] (Cholyl-AEDVGSNKGAIIGLM-OH) ?
*A* 1.6
